Target: BRD4-BD1 (Homo sapiens (Human), UniProt O60885)
Assay: BRD4-H4 tetraacetylated peptide inhibition AlphaScreen
Conditions: 15 nM GST-BRD4-BD1 (aa 44-168), 15 nM biotinylated Acetyl-Histone H4 (Lys5, 8, 12, 16) peptide
Test Readout: IC50 (nM)

INSERT INTO measurements (molecule, experimental_value) VALUES
  ('CC(=O)N1CCC(Nc2cc(N(C)Cc3ccccc3)nn3c(C)nnc23)CC1 [III-1]', 61),
  ('Cc1nnc2c(NC3CCN(S(=O)(=O)C4CCNCC4)CC3)cc(N(C)Cc3ccccc3)nn12 [III-7]', 57);

[A] Cc1nnc2c(N[C@H]3CCOC3)cc(N(C)Cc3ccccc3)nn12 [Example I-3]
[B] Cc1nnc2c(NC3CCN(C)CC3)cc(-c3c(Cc4ccccc4)c4ccccc4n3C)nn12 [II-4]
In: I'd appreciate it if you could identify which of A and B has the greater IC50. Lab log: write the label of the selected item as the result.
Out: A

###

Target: BRD4-BD1 (Homo sapiens (Human), UniProt O60885)
Assay: BRD4-H4 tetraacetylated peptide inhibition AlphaScreen
Conditions: 15 nM GST-BRD4-BD1 (aa 44-168), 15 nM biotinylated Acetyl-Histone H4 (Lys5, 8, 12, 16) peptide
pIC50: −log10 of the molar value.
Test Readout: pIC50

INSERT INTO results (compound, subject_of_test, test_readout, experimental_value) VALUES
  ('Cc1nnc2c(NC3CCN(C=O)CC3)cc(N(C)Cc3ccccc3)nn12 [III-4]', 'BRD4-BD1 (Homo sapiens (Human), UniProt O60885)', 'pIC50', 7.40),
  ('CNc1cc(N(C)Cc2ccccc2)nn2c(C)nnc12 [Example I-5]', 'BRD4-BD1 (Homo sapiens (Human), UniProt O60885)', 'pIC50', 7.08),
  ('CNc1cc(-c2cnn(C)c2Oc2ccccc2)nn2c(C)nnc12 [II-14]', 'BRD4-BD1 (Homo sapiens (Human), UniProt O60885)', 'pIC50', 7.59),
  ('Cc1nnc2c(NC3CCN(C)CC3)cc(-c3ccnn3Cc3ccccc3)nn12 [II-2]', 'BRD4-BD1 (Homo sapiens (Human), UniProt O60885)', 'pIC50', 6.93),
  ('Cc1nnc2c(NC3CCN(S(=O)(=O)CCN(C)C)CC3)cc(N(C)Cc3ccccc3)nn12 [III-11]', 'BRD4-BD1 (Homo sapiens (Human), UniProt O60885)', 'pIC50', 7.41),
  ('Cc1nnc2c(Cl)cc(-c3cn(C)nc3Cc3ccccc3)nn12 [II-12]', 'BRD4-BD1 (Homo sapiens (Human), UniProt O60885)', 'pIC50', 7.29);

[P] Cc1nnc2c(NC3CCN(C)CC3)cc(-c3[nH]c4ccccc4c3Cc3ccccc3)nn12 [II-3]
[Q] Cc1nnc2c(NC3CCN(S(=O)(=O)C4CCN(C)CC4)CC3)cc(N(C)Cc3ccccc3)nn12 [III-9]
[R] Cc1nnc2c(NC3CCN(C)CC3)cc(-c3cc4ccccc4n3Cc3ccccc3)nn12 [II-5]
[S] COCCN1CCC(Nc2cc(-c3cnn(C)c3Oc3ccccc3)nn3c(C)nnc23)CC1 [II-6]
In: Please list these in order of increasing pIC50. Thank you! Would you mind listing the labels in the order requested?
Out: R, Q, S, P
